# System: NOMO1
# Protocol Details: cell viability relative to DMSO control; higher = less cytotoxic
# Test Parameters: RPMI 5 mM glucose + 10% FBS; 48 h; 0.0211 µM
# maps each entry to its cell viability
Property: cell viability

{"columns": ["Molecule", "Measured Value"],
 "data": [
  ["CC[C@@]1(O)C(=O)OCC/2=C1/C=C3\\N(CC4=CC5=CC(=CC=C5N=C34)O)C2=O", "107%"],
  ["C[C@H]1[C@@H](C(=O)C[C@H]2O[C@@H]3O[C@]4(C)CC[C@H]5[C@H](C)CC[C@@H]([C@H]2C)[C@@]35OO4)O[C@@H]2O[C@]3(C)CC[C@H]4[C@H](C)CC[C@@H]1[C@@]24OO3", "99.4%"],
  ["CCOC(=O)c1cncn1[C@H](C)c1ccccc1", "128%"],
  ["O=C\\1N(N\\C=C1[N]2C=CN=N2)C3=NC=NC(=C3)N4CCOCC4", "87.8%"]
]}

----------
# maps each entry to its cell viability
# Tested on: SEM cells
# Protocol Details: cell viability relative to DMSO control; higher = less cytotoxic
# Test Parameters: RPMI 5 mM glucose + 10% FBS; 48 h; 46.1 µM

{"columns": ["Compound", "Measurement Unit", "cell viability"],
 "data": [
  ["CC(C)c1cc(C(=O)N2Cc3ccc(CN4CCN(C)CC4)cc3C2)c(O)cc1O", "%", 18.3],
  ["CCOC(=O)c1cncn1[C@H](C)c1ccccc1", "%", 111],
  ["COc1cc2c(Nc3ccc(Br)cc3F)ncnc2cc1OCC1CCN(C)CC1", "%", 74.1],
  ["NC(=O)C1CCCc2c1[nH]c1ccc(Cl)cc21 (stereo unspecified)", "%", 1.78],
  ["COc1cc([C@H]2Oc3cc([C@H]4Oc5cc(O)cc(O)c5C(=O)[C@@H]4O)ccc3O[C@@H]2CO)ccc1O", "%", 108],
  ["COC/1=C/C=C2\\C(=C/C1=O)[C@H](CCC3=CC(=C(OC)C(=C23)OC)OC)NC(C)=O", "%", 2.96],
  ["COc1ccc2c(c1)c(CC(=O)OCC(=O)O)c(C)n2C(=O)c1ccc(Cl)cc1", "%", 102],
  ["N#Cc1ccnc(Nc2cc(C3CCN(C4COC4)CC3)cc(N3CCC(F)(F)C3)n2)c1", "%", 8.66],
  ["O=C(Cc1ccc(-c2ccc(OCCN3CCOCC3)cc2)cn1)NCc1ccccc1", "%", 2.89],
  ["CC/1=C(/C(CC(=O)N1)C2=CC=C(C=C2)C(F)(F)F)C(=O)NC3=C(F)C=C4[NH]N=CC4=C3 (stereo unspecified)", "%", 31.8],
  ["CN(C)c1nc(Cc2ccc(NC(=O)c3ccc4ccccc4c3)cc2)nc(Cl)c1CC(=O)O", "%", 105],
  ["CCN(C(=O)C/1=C(O)/C2=C(C=CC=C2Cl)N(C)C1=O)C3=CC=CC=C3", "%", 3.37],
  ["COc1cc2nc(-c3cc(F)ccc3O)nc(N[C@@H]3CNC[C@H]3C(C)(C)O)c2cc1OC", "%", 5.78],
  ["Nc1nc(N)c2nc(-c3cccc(O)c3)c(-c3cccc(O)c3)nc2n1", "%", 13.8],
  ["NC(=O)c1cccc2cn(-c3ccc([C@@H]4CCCNC4)cc3)nc12", "%", 32.5],
  ["Nc1ncnc2ccccc12", "%", 107],
  ["COc1ccc2[nH]c([S+]([O-])Cc3ncc(C)c(OC)c3C)nc2c1 (stereo unspecified)", "%", 69.8],
  ["CN(C)CC[C@H](c1ccc(Cl)cc1)c1ccccn1", "%", 101],
  ["Nc1nnc(-c2cccc(Cl)c2Cl)c(N)n1", "%", 89.7],
  ["Cc1[nH]c(/C=C2\\C(=O)Nc3ccccc32)c(C)c1CCC(=O)O", "%", 18.3],
  ["CC(C)c1ccc(Cn2ccc3c4c(N)nc(NC5CC5)nc4ccc32)cc1", "%", 8.49]
]}

----------
# maps each entry to its cell viability
# Tested on: P12-Ichikawa
# Protocol Details: cell viability relative to DMSO control; higher = less cytotoxic
# Test Parameters: RPMI 5 mM glucose + 10% dialyzed FBS; 48 h; 15.4 µM
Property: cell viability

{"columns": ["Molecule", "Measured Value"],
 "data": [
  ["COc1ccc([C@@H]2CC(=O)c3c(O)cc(O[C@@H]4O[C@H](CO[C@@H]5O[C@@H](C)[C@H](O)[C@@H](O)[C@H]5O)[C@@H](O)[C@H](O)[C@H]4O)cc3O2)cc1O", "115%"],
  ["CN[C@@H](C)C(=O)N[C@H]1CN(C(=O)CC(C)C)CC[C@H]2CC[C@@H](C(=O)NC(c3ccccc3)c3ccccc3)N2C1=O", "43.3%"],
  ["COc1cc2c(Nc3ccc(Br)cc3F)ncnc2cc1OCC1CCN(C)CC1", "68%"]
]}

----------
# Test system: SEM cells
# Protocol Details: cell viability relative to DMSO control; higher = less cytotoxic
# Test Parameters: RPMI 5 mM glucose + 10% FBS; 48 h; 15.4 µM

{"columns": ["Molecule", "cell viability [%]"],
 "data": [
  ["O=C1Nc2ccc(I)cc2/C1=C/c1cc(Br)c(O)c(Br)c1", 88.4],
  ["Cc1cc(C(=O)N2CCN(c3cccc(Cl)c3)CC2)n(-c2ccccc2)n1", 17.5],
  ["CN[C@@H](C)C(=O)N[C@H]1CN(C(=O)CC(C)C)CC[C@H]2CC[C@@H](C(=O)NC(c3ccccc3)c3ccccc3)N2C1=O", 56.5],
  ["CN1\\N=C(N)/C2=C[N]([C@@H]3O[C@H](CO[P](O)(O)=O)[C@@H](O)[C@H]3O)C4=C2C1=NC=N4", 3.71]
]}

----------
# Tested on: NOMO1
# Protocol Details: cell viability relative to DMSO control; higher = less cytotoxic
# Test Parameters: RPMI 5 mM glucose + 10% dialyzed FBS; 48 h; 0.00702 µM

{"columns": ["Compound", "cell viability, %"],
 "data": [
  ["CC1=C(CC(=O)O)c2cc(F)ccc2/C1=C\\c1ccc([S+](C)[O-])cc1 (stereo not drawn)", 119],
  ["CO/C1=C/C(C)=C\\[C@@H](C)[C@@H](O)[C@@H](C)C/C(C)=C\\C=C/[C@H](OC)[C@@H]([C@@H](C)[C@@H](O)[C@H](C)[C@@]2(O)C[C@@H](O)[C@H](C)[C@@H](C(C)C)O2)OC1=O", 104],
  ["Cc1ccc([S+](=O)([O-])Nc2nc3ccccc3nc2Nc2ccc3nsnc3c2)cc1", 106],
  ["Cc1csc(NC(=O)c2sc3nc4c(c(C(F)(F)F)c3c2N)CCC4)n1", 93],
  ["COC(=O)C1C2CC3c4[nH]c5cc(OC)ccc5c4CCN3CC2CC(OC(=O)c2cc(OC)c(OC)c(OC)c2)C1OC (stereo not drawn)", 103],
  ["O=C(O)/C=C/c1ccc(O)c(O)c1", 106],
  ["C[C@]12CC[C@H]3[C@@H](CCC/4=C/C(=O)CC[C@]34C)[C@@H]1CC[C@@H]2O", 135],
  ["CN(C)CCOc1ccc(-c2nc(-c3ccncc3)c(-c3ccc4c(c3)CC/C4=N\\O)[nH]2)cc1", 121]
]}

----------
# Test system: SEM cells
# Protocol Details: cell viability relative to DMSO control; higher = less cytotoxic
# Test Parameters: RPMI 5 mM glucose + 10% FBS; 48 h; 46.1 µM

{"columns": ["Molecule", "Measured Target", "cell viability / %"],
 "data": [
  ["O=C(O)COCCN1CCN(C(c2ccccc2)c2ccc(Cl)cc2)CC1 (configuration not stated)", "SEM cells", 102],
  ["ClC1=CC\\2=C(OC3=C(C=CC=C3)\\N=C2N4CCNCC4)C=C1", "SEM cells", 86.8],
  ["CN[C@@H](C)C(=O)N[C@H]1CN(C(=O)CC(C)C)CC[C@H]2CC[C@@H](C(=O)NC(c3ccccc3)c3ccccc3)N2C1=O", "SEM cells", 38.5],
  ["Cn1c(=O)n(-c2ccc(C(C)(C)C#N)cc2)c2c3cc(-c4cnc5ccccc5c4)ccc3ncc21", "SEM cells", 6.98],
  ["COC[C@H](c1ccc(C(F)(F)F)cc1)N1CCN(C2(C)CCN(C(=O)c3c(C)ncnc3C)CC2)C[C@H]1C.O=C(O)/C=C\\C(=O)O", "SEM cells", 59.6],
  ["C[C@@H](NC(=O)c1ncnc(N)c1Cl)c1ncc(C(=O)Nc2cc(C(F)(F)F)c(Cl)cn2)s1", "SEM cells", 106],
  ["CC[C@]12\\C=C/CN3CC[C@]4([C@@H](N(C)C5=CC(=C(C=C45)[C@]6(C[C@H]7C[C@H](CN(C7)CC8=C6[NH]C9=C8C=CC=C9)C(C)(F)F)C(=O)OC)OC)[C@](O)([C@@H]1OC(C)=O)C(=O)OC)[C@H]23", "SEM cells", 6.89]
]}
